Biological target: T1, GST-praja2_(530–570) (human, UniProt O43164 530-570, fluorescent dye on primary amines (NHS-ester labelling))
T1 chain: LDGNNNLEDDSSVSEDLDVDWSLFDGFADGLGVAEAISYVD
Assay: MST
Assay Metric: Kd

stdin: What value of Kd has been reported for the following binder? WDTTGQNLIKKVANLAQRLTARARHRCQTPHLLAA (TBC1D31, human, C-terminus segment peptide with R948A and R951A; also called TBC1D31AA; R948A-R951A; source: synthetic peptide (bought: Shanghai Apeptide Co., Ltd)) [double AA mutant TBC1D31 peptide]
stdout: ~65 µM
